biological target: Bcl-xL, Q07817; experiment: peptide SPOT array, c-Myc-tagged receptor at 1 uM or 100 nM, anti-c-Myc-Cy3
Sequence (Q07817 1-209): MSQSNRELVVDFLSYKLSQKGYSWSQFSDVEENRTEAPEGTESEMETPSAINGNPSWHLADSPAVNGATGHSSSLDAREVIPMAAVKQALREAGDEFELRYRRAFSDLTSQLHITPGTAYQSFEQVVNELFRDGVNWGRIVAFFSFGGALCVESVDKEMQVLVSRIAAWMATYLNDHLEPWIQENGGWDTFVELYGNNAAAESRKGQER
metric: SPOT signal as a fraction of Bim BH3's signal on the same receptor and array

For orientation, consider the following solved cases.
> print(dat)
                                binder  result
1   RHFVIRRGQVLREILEEYGGVMVSFP [HDLBP]    0.04
2  KSRLVQQSKADKELADELQERCQRPA [TRIM58]    0.05
3    FSKREKLVEILRNIGDERTMVFVETK [DDX4]    0.14
4   DATHDEAVQALKRAGKEVLLEVKYMR [SNTB1]    0.04
5   VDFYQPTCIVLQCGLDSLGCDRLGCF [HDAC3]    0.01

Q: Need SPOT signal as a fraction of Bim BH3's signal on the same receptor and array, item LLDFFMVSILDSKLGDLLHKLQFVLT [PCNXL2]
Result: 0.09

Q: // query SPOT signal as a fraction of Bim BH3's signal on the same receptor and array value for entry SVRYYPSGDAFASGSDDATCRLYDLR [GNB5]
Result: 0.02

All figures here come from paper PMC4072508.
